Numbers sourced from the supplement of paper PMC10724198.

- Tested on: Saccharomyces cerevisiae
- EXPERIMENT DESCRIPTION: protein stability index of tFT-peptide fusion (C-terminal peptide) (PSI (0-1 scale)); higher = more stable (slower turnover);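 further: PSI is a weighted mean of sequencing reads over stability bins, variants kept only with over 10 reads, mCherry proximal and sfGFP distal, peptide attached via GGGS linker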
- ASSAY CONTEXT: genetic background: wild type; temperature: 30 C
REPORTED METRIC: protein stability index

seq=PRSTATSPPAPP test_value=0.668
seq=ACRVAVGRLFGS test_value=0.717
seq=ILCTVVKTDSKE test_value=0.702
seq=LSVAFFILRVPL test_value=0.573
seq=RYCVVDISAFCD test_value=0.465
seq=LRTPNIYLSFSP test_value=0.666
seq=PPPSPPPTSNPN test_value=0.742
seq=ADCRSRPMREGS test_value=0.665
seq=FAPSAGGSLAGP test_value=0.698
seq=SSPIFPDPSHVS test_value=0.606
seq=EGSGLVVANAYP test_value=0.667
seq=DRRQLSVVARRT test_value=0.648
seq=PSPRSPVPLTPS test_value=0.708
seq=DGSMRKWGQGVG test_value=0.575
seq=RVDGDFDYPRVV test_value=0.82
seq=AGALGADRWGLK test_value=0.741
seq=PTRRPDGQLHPS test_value=0.671

###

Entries annotated with measured protein stability index
- System: Saccharomyces cerevisiae
- EXPERIMENT DESCRIPTION: protein stability index of tFT-peptide fusion (C-terminal peptide) (PSI (0-1 scale)); higher = more stable (slower turnover)
- ASSAY CONTEXT: genetic background: wild type; temperature: 30 C
REPORTED METRIC: protein stability index

seq=GNSAGSVGGGRF reported_metric="protein stability index" test_value=0.705
seq=GSQRAHRQAAHD reported_metric="protein stability index" test_value=0.683
seq=SGDCRLPLPRSP reported_metric="protein stability index" test_value=0.711
seq=GWREPQHGARGP reported_metric="protein stability index" test_value=0.719
seq=PGGLVVGAGRED reported_metric="protein stability index" test_value=0.709
seq=SSLRPSRPPPAS reported_metric="protein stability index" test_value=0.699
seq=LIQHVTKLTPFF reported_metric="protein stability index" test_value=0.694
seq=PSSEGHMEDTAA reported_metric="protein stability index" test_value=0.684
seq=EVFGNVREAHCV reported_metric="protein stability index" test_value=0.707
seq=ACGAWAVVGLLG reported_metric="protein stability index" test_value=0.679
seq=KKGNKYNNKRKK reported_metric="protein stability index" test_value=0.69
seq=GFKDRCKDEKSL reported_metric="protein stability index" test_value=0.713
seq=PLSPPPPPPPPL reported_metric="protein stability index" test_value=0.707
seq=PARLLIEFPSYS reported_metric="protein stability index" test_value=0.684
seq=WQDTASNSNTTI reported_metric="protein stability index" test_value=0.719
seq=SSRRYSGLSFTS reported_metric="protein stability index" test_value=0.702
seq=LLPPRPSSSPPS reported_metric="protein stability index" test_value=0.704
seq=PPPLPSAPPTGT reported_metric="protein stability index" test_value=0.706
seq=GVFWRGCGGCGG reported_metric="protein stability index" test_value=0.685
seq=VLCLRSNRHGVF reported_metric="protein stability index" test_value=0.698
seq=PLCVFHYSSDDY reported_metric="protein stability index" test_value=0.705

###

- Tested on: Saccharomyces cerevisiae
- EXPERIMENT DESCRIPTION: protein stability index of tFT-peptide fusion (C-terminal peptide) (PSI (0-1 scale)); higher = more stable (slower turnover)
- ASSAY CONTEXT: genetic background: doa10 deletion; temperature: 30 C
Entries annotated with measured protein stability index
REPORTED METRIC: protein stability index

seq=ACVRLVLCVCRV assay_target="Saccharomyces cerevisiae" reported_metric="protein stability index" test_value=0.211
seq=ALCPPLPMLVVA assay_target="Saccharomyces cerevisiae" reported_metric="protein stability index" test_value=0.109
seq=IFLLFPFSWRIF assay_target="Saccharomyces cerevisiae" reported_metric="protein stability index" test_value=0.364
seq=GTETWVFVLLKF assay_target="Saccharomyces cerevisiae" reported_metric="protein stability index" test_value=0.302
seq=DILCGRCMIVGA assay_target="Saccharomyces cerevisiae" reported_metric="protein stability index" test_value=0.393
seq=SFLLGCCWLVLC assay_target="Saccharomyces cerevisiae" reported_metric="protein stability index" test_value=0.135
seq=LDLSSLRCRYLL assay_target="Saccharomyces cerevisiae" reported_metric="protein stability index" test_value=0.185
seq=LLSLPTTNLMAF assay_target="Saccharomyces cerevisiae" reported_metric="protein stability index" test_value=0.356
seq=SVHKYGFIKEIN assay_target="Saccharomyces cerevisiae" reported_metric="protein stability index" test_value=0.473
seq=TTSHFCVVLVSV assay_target="Saccharomyces cerevisiae" reported_metric="protein stability index" test_value=0.182
seq=ALNFFSLFMLFR assay_target="Saccharomyces cerevisiae" reported_metric="protein stability index" test_value=0.603
seq=VFVLFLRAVACR assay_target="Saccharomyces cerevisiae" reported_metric="protein stability index" test_value=0.0174
seq=CIHMNCSMMIIS assay_target="Saccharomyces cerevisiae" reported_metric="protein stability index" test_value=0.169
